Below are AC50 values measured for UniProt:P08684.
Sequence (P08684 whole entry): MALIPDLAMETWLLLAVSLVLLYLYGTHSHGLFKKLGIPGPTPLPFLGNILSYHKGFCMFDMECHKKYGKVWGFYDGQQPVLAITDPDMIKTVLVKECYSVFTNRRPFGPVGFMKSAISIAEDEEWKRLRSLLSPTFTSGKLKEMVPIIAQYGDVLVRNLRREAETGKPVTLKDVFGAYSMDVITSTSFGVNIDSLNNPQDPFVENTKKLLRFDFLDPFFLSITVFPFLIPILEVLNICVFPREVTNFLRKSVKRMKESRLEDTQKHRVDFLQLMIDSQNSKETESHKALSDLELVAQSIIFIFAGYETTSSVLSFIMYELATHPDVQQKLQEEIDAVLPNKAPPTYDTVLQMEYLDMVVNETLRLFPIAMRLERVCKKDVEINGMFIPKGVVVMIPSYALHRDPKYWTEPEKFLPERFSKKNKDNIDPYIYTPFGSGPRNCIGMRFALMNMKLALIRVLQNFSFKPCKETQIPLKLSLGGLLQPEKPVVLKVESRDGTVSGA

>>> test_result("CCCN1CCc2cccc3c2[C@@H]1Cc1ccc(O)c(O)c1-3")
"12.6 µM (inconclusive)"
>>> test_result("Nc1ccc(S(=O)(=O)c2ccc(NC(=O)c3cccnc3)cc2)cc1")
"3.16 µM (inconclusive)"

Give AC50 for each of the items listed below.
1. Cc1cc(NC(=O)C2C3C(=O)N(Cc4ccc(Cl)cc4)C(C(=O)NC(C)(C)C)C34C=CC2(C)O4)no1 (stereo not given)
2. CCCN1CCN(C(=O)CN2C(=O)CC(C)(C)S(=O)(=O)c3ccccc32)CC1
3. NC[C@](O)(CS(=O)(=O)O)c1ccc(Cl)cc1
4. C/C(CCN1CCCc2nc(C)c(C)cc21)=N\O[C@@H](C)c1cc(-c2c(C)cc(C)cc2C)no1
5. COCCn1c(=O)c(-c2ccc(F)c(F)c2)nc2cncnc21
6. O=C(CNC(=O)c1ccccc1)NCC(=O)OCc1ccc(Cl)cc1
7. FC(F)(F)c1cc(CN2CC[C@@]3(CCCNC3)C2)cc(C(F)(F)F)c1

*A*
["25.1 µM (inconclusive)", "12.6 µM (inconclusive)", "1 µM (inconclusive)", "5.01 µM (inconclusive)", "12.6 µM (inconclusive)", "14.1 µM (inconclusive)", "3.98 µM (inconclusive)"]

*Q* Would you mind telling me what AC50 value was observed for O=C1CCCCCC1C1(O)C(=O)Nc2ccc(Br)cc21 (stereo not given) ?
*A* 17.8 µM (inconclusive)

* * *

target: Induced myeloid leukemia cell differentiation protein Mcl-1 (Homo sapiens, UniProt Q07820); type: functional
Sequence (Q07820 whole entry): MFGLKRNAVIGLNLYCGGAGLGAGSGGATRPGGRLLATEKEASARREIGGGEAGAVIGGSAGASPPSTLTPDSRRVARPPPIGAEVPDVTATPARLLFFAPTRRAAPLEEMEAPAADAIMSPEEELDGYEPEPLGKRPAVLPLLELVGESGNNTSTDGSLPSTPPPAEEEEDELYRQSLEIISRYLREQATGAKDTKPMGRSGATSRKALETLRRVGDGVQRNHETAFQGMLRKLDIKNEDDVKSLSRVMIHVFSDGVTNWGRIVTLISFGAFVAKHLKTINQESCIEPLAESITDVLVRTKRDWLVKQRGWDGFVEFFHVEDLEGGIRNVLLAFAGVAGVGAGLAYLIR
The source made the active and inactive calls.
Can you tell me IC50 for the items I'm about to list?

>>> test_result("COc1ccc2[nH]c3c4c(ccc3c2c1)C(=O)C=CC4=O")
"919 nM (active)"
>>> test_result("O=C(O)CCN1C(=O)/C(=C\\c2ccc(-c3nc4ccccc4s3)o2)SC1=S")
"1530 nM (active)"

Kindly consider the entry below.
*Q* Would you mind telling me what IC50 value was observed for CN(C)c1ccc(NC(=O)CCCc2ccccc2)cc1 ?
*A* 4980 nM (not active)

* * *

biological target: Protein RecA (Mycobacterium tuberculosis); test: Fluorescence Cell-Free Homogeneous Dose Retest to Identify Inhibitors of RecA-Intein Splicing Activity. [Related pubchem assays (depositor defined):AID2097, AID2223, AID489010, AID492950]; assay type: functional
Calls of active or inactive are those of the source.
value-type: EC50

>>> test_result("COc1ccc(OC)c(N2C(=O)C(Cl)=C(N3CCOCC3)C2=O)c1")
"26.3 µM (active)"
>>> test_result("O=C(OCn1ncc(Cl)c(Cl)c1=O)c1ccccc1Cl")
"0.669 µM (active)"
>>> test_result("CN1CCN(C(c2ccc(Cl)cc2)c2cc(Cl)c3cccnc3c2O)CC1 (stereo not given)")
"2.42 µM (active)"
>>> test_result("O=S(=O)(/C(=C/c1ccc(C(F)(F)F)cc1)c1nc2ccccc2[nH]1)c1ccccc1")
"5.85 µM (active)"
>>> test_result("Cc1nnc(N/N=C/c2ccccc2O)n1N")
"4.08 µM (active)"
>>> test_result("COC(=O)c1sc(-c2ccc(Cl)cc2)cc1NC(=O)/C=C/C(=O)O")
"2.44 µM (active)"
>>> test_result("O=C(c1c[nH]c(C(=O)C(Cl)(Cl)Cl)c1)c1ccc(F)cc1F")
"7.8 µM (active)"
>>> test_result("CC1=NN(Cc2ccccc2)C(=O)/C1=C/c1ccc(N(C)C)cc1")
"1.22 µM (active)"
>>> test_result("COc1cccc(N(C(=O)CCl)C(C(=O)NCCc2ccccc2)c2cccs2)c1 (stereo not given)")
"0.329 µM (active)"

Kindly consider the entry below.
*Q* Would you mind telling me what EC50 value was observed for COC(=O)COc1c(Cl)cc(C(c2c(C)n[nH]c2O)c2c(C)n[nH]c2O)cc1OC ?
*A* 0.158 µM (active)
